Test system: SK-OV-3 ovarian
Test: NCI-60 one-dose screen, 48 h
Details: 10 µM unless noted
Compounds without any hit were thinned out: in the full panel of roughly 83,000, 20% have a hit. Active and inactive are the calls of the source. The calls were made as follows: active = growth percent below 10; inactive = the rest.
Pick from active, inactive when you respond.

Worked cases, answers included:
{"columns": ["compound", "system.tested", "assigned.class"],
 "data": [
  ["CCN(CC)S(=O)(=O)c1cccc([N+](=O)[O-])c1", "SK-OV-3 ovarian", "inactive"],
  ["CC(=O)OC1CCC2(C)C(CCC3C4CC=C(C(C)=O)C4(C)OC(=O)CC32)C1 (centres undefined)", "SK-OV-3 ovarian", "inactive"],
  ["Cc1ccccc1C(c1ccccc1)c1ccccc1C", "SK-OV-3 ovarian", "inactive"],
  ["COc1ccc(C(O)c2cc3c(N)c(C(=O)Nc4cccc(Br)c4C)sc3nc2C)cc1 (centres undefined)", "SK-OV-3 ovarian", "inactive"],
  ["Cc1nc2sc(C(=O)Nc3ccccc3)c(N)c2cc1C(=O)c1ccc(C(F)(F)F)cc1", "SK-OV-3 ovarian", "inactive"]
]}

Task: For this compound, state the assay outcome: O=C1Nc2c(ccc(Cl)c2Cl)/C1=C/c1ccccn1
Result: inactive

Task: Called result for COc1ccc2nc(N=Nc3c(O)ccc4ccccc34)sc2c1
Result: inactive

Task: So what was the verdict on COc1ccc(NS(=O)(=O)c2ccc(C)cc2)c([N+](=O)[O-])c1 in this test?
Result: inactive

====

System: SW-620 colon
Experiment: NCI-60 one-dose screen, 48 h (100 = growth as untreated, 0 = no growth, -100 = all killed)
Conditions: 10 µM unless noted
The panel holds about 83,000 compounds, 20% with a hit somewhere; the sample as a whole holds those more often.
Task for the reader: assign each of the following molecules its reported growth.
Numbers only, in %.

{"columns": ["molecule", "growth / %"],
 "data": [
  ["CCN(CC)CCSCCCNc1c(C)cnc2cc(Cl)ccc12", 88.3],
  ["C=CCn1c(SCC(=O)Nc2ccc(C(=O)/C=C/c3cc(OC)c(OC)c(OC)c3)cc2)nnc1-c1cc(-c2ccc(S(C)(=O)=O)cc2)nc2ccccc12", 77],
  ["CS(=O)(=O)c1ccc(-c2cc3c(oc2=O)-c2ccccc2OC3O)cc1 (stereo not given)", 97.8],
  ["COc1ccc(/C(=C\\c2ccccc2)C(=O)O)cc1OC", 97.4]
]}

Here is the next item to consider.
growth measured on CN1CCN(c2ccc3nc(-c4cc(C(C)(C)C)c(O)c(C(C)(C)C)c4)[nH]c3c2)CC1 = 14.7

====

Test system: TK-10 renal
Assay: NCI-60 one-dose screen, 48 h
Settings: 10 µM unless noted
Experimental: Growth inhibition of the TK-10 human tumor cell line is measured as a screen for anti-cancer activity. Cells are grown in 96 well plates and exposed to the test compound for 48 hours. Compounds are tested at a single concentration, which is 10^-5 M for most compounds. The reported endpoint is percent growth (GI% or GIPRCNT), where numbers from 0 - 100% represent growth inhibition, and numbers from -100% - 0 represent cell death. For example, a value of 40 represents 60% growth inhibition. […]
Compounds without any hit were thinned out: in the full panel of roughly 83,000, 20% have a hit. Active and inactive are the calls of the source. Rule for the calls: active = growth percent below 10; inactive = the rest.
Select the correct class. Options are true for active, false for inactive and nothing else.

As a guide, the following entries are already answered.
{"columns": ["compound", "system.tested", "assigned.class"],
 "data": [
  ["COc1cc(COC(=O)CCCCC[P+](c2ccccc2)(c2ccccc2)c2ccccc2)c(OC)c2c1OCO2", "TK-10 renal", "false"],
  ["Cc1c2c(cc[n+]1Cc1ccc(F)cc1)c1ccc(OCc3cccc(F)c3)cc1n2Cc1cccc(F)c1", "TK-10 renal", "true"],
  ["O=C(N/N=C/c1ccc(O)c(O)c1)c1sc2ccccc2c1Cl", "TK-10 renal", "false"],
  ["COc1ccccc1/C=N/NC1=NC2C(N1)N(C)C(=O)N2C (stereo unspecified)", "TK-10 renal", "false"],
  ["COc1ccccc1N1CCN(C(=O)c2ccc3nc(NC(=O)c4ccc(NCCc5ccccc5)c([N+](=O)[O-])c4)sc3c2)CC1", "TK-10 renal", "false"],
  ["CN(Cc1ccccc1)c1nc(Cl)c(C2CC(c3ccc(Cl)cc3)=Cc3[nH][nH]c(=O)c32)s1 (stereo unspecified)", "TK-10 renal", "false"],
  ["Fc1ccccc1CSc1ncnc2nc[nH]c12", "TK-10 renal", "false"],
  ["Cc1cn(-c2cc(C(=O)Nc3cccc(C#Cc4cccc5[nH]nc(N)c45)c3)cc(C(F)(F)F)c2)cn1", "TK-10 renal", "false"]
]}

Now consider a different compound.
Task: How was CC(=O)OC1CCC2(C)C(CCC3C4CC=C(C(C)=O)C4(C)OC(=O)CC32)C1 (stereo unspecified) classified in this test?
Result: true

Where do these numbers come from? They come from PubChem BioAssay (NCI).
